- assay_explanation: Co-solvent addition: AOL solubility
- Assay type: physicochemical
- test_context: aqueous SBE-β-CD solution, aqueous with cosolvent or surfactant or cyclodextrin, thermodynamic from solid, SBE-β-CD 20% (w/w), Tween 80 20% (w/w)
observable: solubility at 4 h (µg/mL)
Give bare numbers, in µg/mL.

Inquiry: Look up solubility at 4 h for this compound: "COc1ccc(-c2cc(=S)ss2)cc1"
Reply text: 829

---

- assay_explanation: Co-solvent addition: AOL solubility
- Assay type: physicochemical
- test_context: aqueous SBE-β-CD solution, aqueous with cosolvent or surfactant or cyclodextrin, thermodynamic from solid, SBE-β-CD 30% (w/w), Tween 80 2% (w/w)
- Method: SBE-β-CD compatible excipients, namely polyethylene glycol and polysorbate (Tween), were evaluated for their AOL aqueous solubilizing power. Screening was carried out in same conditions as that of solubilization screening by cyclodextrins (see Example 3). Briefly, 20% (w/w) solutions of each excipient were prepared. An excess of AOL was added and the solutions were analyzed by HPLC after 4 hours of stirring. […]
observable: solubility at 4 h (µg/mL)
One number for each entry, in µg/mL.

Inquiry: Look up solubility at 4 h for this compound: "COc1ccc(-c2cc(=S)ss2)cc1"
Reply text: 630
